# target system: Gal(b1-3)GalNAc(a1-3)[Fuc(a1-2)]Gal(b1-4)GlcNAc
# measurement notes: glycan array binding signal (z-score within array); higher = stronger binding
# run conditions: glycan notation: IUPAC condensed, linker removed
About 410 targets per protein were measured; listed, in parts, are those with the strongest signals and a random draw of the rest.
parameter measured: glycan array binding signal (z-score)
Numbers only.

# binder, glycan array binding signal (z-score)
rows = [
    ("Gal 4 (Canis lupus) (protein) MAYVPAPGYQPTYNPTLPYNKPIPGGLSVGMSVYIQGITSEHMRRFCVNFVAGAHPGSDIAFHFNPRFDGWDKVVFNSHLGGKWGSEEKKRSMPFRKGTHFELVFMVLAEHYKVVVNGNPFYEFGHRLPLQLVTHLQVEGDVELQSINFIGGTQPLGQGPGHTQQQPSSLPTMEGPPVFNPPVPFRKRLQGGLTVRRTVIIKGFVPFTSKSFVINFMVESSGDLALHINPRLTEGLVVRNSCLNGSWGSEDRKLSYNPFIPGQFFDLSIRCGMDRFKVYANGQHLFDFSHRLLALQNVDMLEINGDVTLSYIQV", 2.63),
]

Kindly give each listed record's glycan array binding signal (z-score).
1. Clec2 (Mus musculus), Q9JL99 (protein) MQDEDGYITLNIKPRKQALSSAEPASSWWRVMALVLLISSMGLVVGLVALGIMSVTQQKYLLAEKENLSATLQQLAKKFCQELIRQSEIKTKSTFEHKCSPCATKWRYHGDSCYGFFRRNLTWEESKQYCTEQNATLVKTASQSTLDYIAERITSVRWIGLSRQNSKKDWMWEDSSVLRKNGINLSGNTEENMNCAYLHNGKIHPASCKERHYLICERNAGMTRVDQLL
2. Gal 8 (Homo sapiens), O00214_1 (protein) MMLSLNNLQNIIYNPVIPFVGTIPDQLDPGTLIVIRGHVPSDADRFQVDLQNGSSMKPRADVAFHFNPRFKRAGCIVCNTLINEKWGREEITYDTPFKREKSFEIVIMVLKDKFQVAVNGKHTLLYGHRIGPEKIDTLGIYGKVNIHSIGFSFSSDLQSTQASSLELTEISRENVPKSGTPQLRLPFAARLNTPMGPGRTVVVKGEVNANAKSFNVDLLAGKSKDIALHLNPRLNIKAFVRNSFLQESWGEEERNITSFPFSPGMYFEMIIYCDVREFKVAVNGVHSLEYKHRFKELSSIDTLEINGDIHLLEVRSW
3. Sebin2 (Coprinopsis cinerea), A8PE78 (protein) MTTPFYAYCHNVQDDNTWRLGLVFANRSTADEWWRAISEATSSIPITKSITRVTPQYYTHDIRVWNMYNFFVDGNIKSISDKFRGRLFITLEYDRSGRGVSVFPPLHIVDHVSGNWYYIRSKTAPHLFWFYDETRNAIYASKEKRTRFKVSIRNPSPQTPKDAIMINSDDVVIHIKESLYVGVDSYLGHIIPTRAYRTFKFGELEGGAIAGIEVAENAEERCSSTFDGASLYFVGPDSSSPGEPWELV
4. XCL (Xerocomus chrysenteron) (protein) MSYSITLRVYQTNRDRGYFSIVEKTVWHFANGGTWSEANGAHTLTQGGSGTSGVLRFLSTKGERITVAVGVHNYKRWCDVVTGLKPDETALVINPQYYNNGGRDYVREKQLAEYSVTSAIGTKVEVVYTVAEGNNLEANVIFS

Reply |
1: -0.939; 2: 2.17; 3: -0.521; 4: 3.43

Would you be so kind as to report glycan array binding signal (z-score) for each listed record?
1. GSL-I-B4 (Griffonia simplicifolia) (protein) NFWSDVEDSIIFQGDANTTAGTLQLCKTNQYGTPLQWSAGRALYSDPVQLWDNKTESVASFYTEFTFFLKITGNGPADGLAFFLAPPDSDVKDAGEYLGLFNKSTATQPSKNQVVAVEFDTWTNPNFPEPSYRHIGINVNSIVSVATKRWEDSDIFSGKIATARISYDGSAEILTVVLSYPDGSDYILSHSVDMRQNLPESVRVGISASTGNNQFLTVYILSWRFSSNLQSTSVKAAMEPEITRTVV
2. PNA (Arachis hypogaea), P02872 (protein) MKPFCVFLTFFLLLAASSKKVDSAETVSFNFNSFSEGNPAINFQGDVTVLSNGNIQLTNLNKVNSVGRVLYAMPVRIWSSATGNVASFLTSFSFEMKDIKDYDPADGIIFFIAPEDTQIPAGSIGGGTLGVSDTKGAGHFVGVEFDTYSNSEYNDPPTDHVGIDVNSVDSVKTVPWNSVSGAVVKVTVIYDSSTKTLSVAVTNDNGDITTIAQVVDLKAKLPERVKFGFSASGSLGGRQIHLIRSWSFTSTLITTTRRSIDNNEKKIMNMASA

Reply |
1. -0.212
2. 8.53

Give measured glycan array binding signal (z-score) for every item shown.
1. ABA (Agaricus bisporus), Q00022 (protein) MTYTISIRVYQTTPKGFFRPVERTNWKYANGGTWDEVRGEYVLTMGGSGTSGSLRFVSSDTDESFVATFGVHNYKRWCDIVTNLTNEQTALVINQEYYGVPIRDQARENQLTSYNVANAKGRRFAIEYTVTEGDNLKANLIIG
2. DC-Sign-R (Homo sapiens), Q9H2X3 (protein) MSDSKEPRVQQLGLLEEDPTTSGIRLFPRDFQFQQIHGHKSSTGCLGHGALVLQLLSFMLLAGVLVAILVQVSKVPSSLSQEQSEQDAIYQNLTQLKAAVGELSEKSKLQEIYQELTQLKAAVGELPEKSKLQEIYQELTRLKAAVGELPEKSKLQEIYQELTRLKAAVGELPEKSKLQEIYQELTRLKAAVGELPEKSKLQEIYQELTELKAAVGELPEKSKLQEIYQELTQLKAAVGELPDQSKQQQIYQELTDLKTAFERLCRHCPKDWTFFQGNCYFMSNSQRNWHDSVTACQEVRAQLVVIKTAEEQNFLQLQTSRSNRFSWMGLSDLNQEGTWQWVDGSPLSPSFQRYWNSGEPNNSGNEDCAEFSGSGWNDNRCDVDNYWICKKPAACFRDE

Reply |
1: 3.27; 2: 1.15
